Assay: clinical
Settings: human, in vivo, 68 mg, AUC0→∞
outcome.measure: AUC(0-inf)

Request: Endpoint output: AUC(0-inf) of CC(C)(C(=O)NCC(F)(F)C(F)(F)F)C(=O)N[C@@H]1C(=O)Nc2ccccc2-c2ccccc21 [RO4929097] . Value?
Response: 34400 ng·h/mL

* * *

Assay: clinical
Conditions: human, in vivo, 20 mg, Half Life
outcome.measure: half-life (h)
Give bare numbers, in h.

Request: Endpoint output: half-life of CC(C)(C(=O)NCC(F)(F)C(F)(F)F)C(=O)N[C@@H]1C(=O)Nc2ccccc2-c2ccccc21 . Value?
Response: 36.2

* * *

Assay: clinical
Conditions: human, in vivo, 30 mg, Cmax
outcome.measure: Cmax (ng/mL)
Numbers only, in ng/mL.

Request: Endpoint output: Cmax of CC(C)(C(=O)NCC(F)(F)C(F)(F)F)C(=O)N[C@@H]1C(=O)Nc2ccccc2-c2ccccc21 . Value?
Response: 656
